Target: mitochondrial respiratory chain complex I (Homo sapiens, UniProt O75251+O75306+P03886)
Sequence (P03886 whole entry): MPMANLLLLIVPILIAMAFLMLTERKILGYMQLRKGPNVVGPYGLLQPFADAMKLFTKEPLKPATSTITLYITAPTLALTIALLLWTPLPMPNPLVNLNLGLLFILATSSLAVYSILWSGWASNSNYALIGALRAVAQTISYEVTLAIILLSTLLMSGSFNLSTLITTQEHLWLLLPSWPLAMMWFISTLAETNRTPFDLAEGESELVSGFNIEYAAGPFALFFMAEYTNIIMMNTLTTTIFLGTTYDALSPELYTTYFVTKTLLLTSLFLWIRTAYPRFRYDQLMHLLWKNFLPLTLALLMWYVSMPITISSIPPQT
Sequence (O75306 34-463): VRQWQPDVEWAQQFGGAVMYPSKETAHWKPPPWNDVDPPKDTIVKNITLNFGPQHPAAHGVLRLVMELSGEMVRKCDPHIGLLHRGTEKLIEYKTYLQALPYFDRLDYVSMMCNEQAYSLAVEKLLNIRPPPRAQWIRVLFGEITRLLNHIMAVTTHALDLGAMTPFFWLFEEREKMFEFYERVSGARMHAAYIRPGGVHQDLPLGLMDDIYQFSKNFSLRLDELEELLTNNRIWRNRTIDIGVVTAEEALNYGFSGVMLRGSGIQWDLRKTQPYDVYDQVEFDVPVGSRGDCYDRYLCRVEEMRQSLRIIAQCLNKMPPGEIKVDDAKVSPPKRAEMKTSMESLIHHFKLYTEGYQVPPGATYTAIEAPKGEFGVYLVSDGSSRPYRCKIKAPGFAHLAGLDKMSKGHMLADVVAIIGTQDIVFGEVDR
Sequence (O75251 39-213): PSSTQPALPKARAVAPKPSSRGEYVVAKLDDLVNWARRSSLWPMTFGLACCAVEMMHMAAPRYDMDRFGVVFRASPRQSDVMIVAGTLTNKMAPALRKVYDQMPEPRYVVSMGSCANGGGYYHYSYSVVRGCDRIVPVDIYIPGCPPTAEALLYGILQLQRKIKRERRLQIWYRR
Assay: spectrophotometric NADH:decylubiquinone oxidation in DU145 homogenate
result-type: pKi
Scale: pKi equals -log10([C]), with [C] in mol/L.

Please supply the value of reported pKi for the item CCCCN1CCCC[C@H]1C(=O)Nc1c(C)cccc1C [levobupivacaine]
3.22

The measurements presented in this section are drawn from paper PMC6019688.
